# Tested on: PC-3
# assay-method-text: Inhibitory concentration against human prostatic adenocarcinoma cell line (PC-3) was determined
# Type: functional, cell-based
attribute-measured: IC50
# output: numeric value plus its unit

Entry CC1(C)C(=O)[C@H](Br)C[C@]23C[C@]24CC[C@]2(C)C([C@]5(C)CC[C@H](C(C)(C)O)O5)[C@@H](O)C[C@@]2(C)C4CCC13 (stereo partly specified) has what IC50?
11.1 µM
